Origin of measurements: patent US20180243297A1

Entries and their IC50
Molecular target: PI 3-kinase gamma (U937 cells, MIP1α-stimulated AKT phosphorylation) (Homo sapiens, UniProt P48736)
Construct: endogenous in cells; host or cells: U937 human monocyte cell line
Sequence (P48736 whole entry): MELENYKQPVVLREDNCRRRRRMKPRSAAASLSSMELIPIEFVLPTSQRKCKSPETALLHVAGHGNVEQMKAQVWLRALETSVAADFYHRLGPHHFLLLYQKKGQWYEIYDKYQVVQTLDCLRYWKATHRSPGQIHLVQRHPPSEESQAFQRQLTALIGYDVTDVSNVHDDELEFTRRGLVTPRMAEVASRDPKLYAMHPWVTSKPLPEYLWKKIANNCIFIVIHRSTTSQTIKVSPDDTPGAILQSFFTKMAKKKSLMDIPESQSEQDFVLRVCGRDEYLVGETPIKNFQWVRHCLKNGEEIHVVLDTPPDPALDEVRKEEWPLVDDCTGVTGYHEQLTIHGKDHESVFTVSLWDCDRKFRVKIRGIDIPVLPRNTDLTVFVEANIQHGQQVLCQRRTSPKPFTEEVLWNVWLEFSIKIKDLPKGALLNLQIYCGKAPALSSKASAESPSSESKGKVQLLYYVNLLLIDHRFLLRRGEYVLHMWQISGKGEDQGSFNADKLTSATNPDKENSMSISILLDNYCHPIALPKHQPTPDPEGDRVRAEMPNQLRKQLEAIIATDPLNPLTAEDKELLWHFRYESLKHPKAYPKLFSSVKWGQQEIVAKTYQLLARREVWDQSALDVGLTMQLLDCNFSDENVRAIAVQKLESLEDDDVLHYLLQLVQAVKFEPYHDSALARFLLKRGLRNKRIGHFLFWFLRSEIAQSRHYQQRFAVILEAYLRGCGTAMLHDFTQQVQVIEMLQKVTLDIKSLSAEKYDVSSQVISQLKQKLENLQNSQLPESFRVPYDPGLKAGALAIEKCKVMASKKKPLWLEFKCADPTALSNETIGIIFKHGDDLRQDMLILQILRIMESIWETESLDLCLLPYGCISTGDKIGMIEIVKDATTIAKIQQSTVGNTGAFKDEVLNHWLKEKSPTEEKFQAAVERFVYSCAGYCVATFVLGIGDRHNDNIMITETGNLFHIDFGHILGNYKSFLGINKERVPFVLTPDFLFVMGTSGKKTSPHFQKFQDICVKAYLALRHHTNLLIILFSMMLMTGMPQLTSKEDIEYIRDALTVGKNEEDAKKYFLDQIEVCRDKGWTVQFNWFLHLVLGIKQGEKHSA
Experiment: Cellular U937 AKT assay (MSD), assay K1
Type: cell-based
Details: MSD format, read-out: Assay K1 PI3Kγ IC50

[
  {
    "MOLECULE": "Cc1ccc(S(=O)(=O)NCC2CCC(C)(C)O2)cc1-c1cnc(N)c(-n2cncn2)n1 (stereo in doubt) [Example 127.40]",
    "UNIT": "nM",
    "IC50": 411
  },
  {
    "MOLECULE": "Cc1ccc(S(=O)(=O)NCC2(CO)CCOCC2)cc1-c1cnc(N)c(-n2cncn2)n1 [Example 127.50]",
    "UNIT": "nM",
    "IC50": 179
  },
  {
    "MOLECULE": "Cc1nc(-c2nc(-c3cc(S(=O)(=O)NCCC(C)(C)O)ccc3C)cnc2N)cs1 [Example 119.30]",
    "UNIT": "nM",
    "IC50": 42
  },
  {
    "MOLECULE": "Cc1ccc(S(=O)(=O)NCCC(C)(C)O)cc1-c1cnc(N)c(-c2ccnc(F)c2)n1 [Example 119.10]",
    "UNIT": "nM",
    "IC50": 172
  },
  {
    "MOLECULE": "Cc1ccc(S(=O)(=O)N[C@@H]2CCOC2)cc1-c1cnc(N)c(-n2cncn2)n1 [Example 127.20]",
    "UNIT": "nM",
    "IC50": 850
  }
]

----------
Target: PI 3-kinase delta (Rat-1_PI3Kdelta cells, Myr-HA-hp110 delta) (Homo sapiens, UniProt O00329)
Sequence (O00329 whole entry): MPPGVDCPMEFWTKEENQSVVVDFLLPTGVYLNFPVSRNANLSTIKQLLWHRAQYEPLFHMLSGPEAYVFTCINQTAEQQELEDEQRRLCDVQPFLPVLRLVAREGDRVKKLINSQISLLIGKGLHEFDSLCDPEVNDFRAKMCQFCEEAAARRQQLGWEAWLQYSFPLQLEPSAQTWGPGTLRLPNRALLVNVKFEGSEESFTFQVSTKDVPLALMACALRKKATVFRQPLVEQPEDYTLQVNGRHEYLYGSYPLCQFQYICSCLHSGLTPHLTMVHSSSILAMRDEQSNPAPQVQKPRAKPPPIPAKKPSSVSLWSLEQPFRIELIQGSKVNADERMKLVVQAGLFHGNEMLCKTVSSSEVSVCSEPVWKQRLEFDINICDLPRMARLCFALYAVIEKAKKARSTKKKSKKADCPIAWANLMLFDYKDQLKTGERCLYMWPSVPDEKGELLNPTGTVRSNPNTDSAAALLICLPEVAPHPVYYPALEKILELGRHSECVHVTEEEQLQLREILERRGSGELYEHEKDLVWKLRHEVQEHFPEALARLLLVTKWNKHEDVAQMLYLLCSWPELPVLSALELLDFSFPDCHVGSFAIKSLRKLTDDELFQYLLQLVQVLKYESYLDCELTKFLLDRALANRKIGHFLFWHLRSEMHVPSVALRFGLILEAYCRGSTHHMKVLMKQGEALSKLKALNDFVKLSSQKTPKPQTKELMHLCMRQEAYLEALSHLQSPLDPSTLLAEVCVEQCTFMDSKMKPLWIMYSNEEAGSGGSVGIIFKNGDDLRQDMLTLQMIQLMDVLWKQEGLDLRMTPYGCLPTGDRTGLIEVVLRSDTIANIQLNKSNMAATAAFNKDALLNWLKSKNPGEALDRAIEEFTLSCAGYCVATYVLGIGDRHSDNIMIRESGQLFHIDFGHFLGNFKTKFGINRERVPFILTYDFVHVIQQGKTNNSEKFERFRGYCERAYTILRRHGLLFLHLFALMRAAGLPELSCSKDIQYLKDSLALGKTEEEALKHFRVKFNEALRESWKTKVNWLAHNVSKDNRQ
Assay: Cellular p-Akt (S473) assay, Surefire format, assay J1
Details: non-asterisked data: version J1 (Surefire format); read-out: Assay J PI3Kδ IC50
pIC50: −log10 of the molar value.
Entries and their pIC50
ASSAY_ENDPOINT: pIC50

[
  {
    "MOLECULE": "Cc1nc(-c2nc(-c3cc(S(=O)(=O)NCCC(C)(C)O)ccc3C)cnc2N)cs1 [Example 119.30]",
    "VALUE_MEASURED": 6.20
  },
  {
    "MOLECULE": "Cc1ncc(-c2nc(-c3cc(S(=O)(=O)NCCC(C)(C)O)ccc3C)cnc2N)o1 [Example 119.40]",
    "VALUE_MEASURED": 5.98
  },
  {
    "MOLECULE": "Cc1ccc(S(=O)(=O)NCCC(C)(C)O)cc1-c1cnc(N)c(-c2cncnc2)n1 [Example 119.20]",
    "VALUE_MEASURED": 5.15
  },
  {
    "MOLECULE": "Cc1ccc(S(=O)(=O)NCCC(C)(C)O)cc1-c1cnc(N)c(-c2ccnc(F)c2)n1 [Example 119.10]",
    "VALUE_MEASURED": 5.98
  }
]

----------
Biological target: PI 3-kinase delta (Homo sapiens, UniProt O00329)
Sequence (P27986 461-568 partner limits assumed, one chain of several): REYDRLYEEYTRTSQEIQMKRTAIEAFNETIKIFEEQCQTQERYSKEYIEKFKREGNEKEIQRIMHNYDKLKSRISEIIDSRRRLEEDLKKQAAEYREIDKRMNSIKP
Experiment: TR-FRET Adapta assay, assay F

[
  {
    "COMPOUND": "Cc1ccc(S(=O)(=O)NCC2COCCN2C)cc1-c1cnc(N)c(-c2cn(C)nc2C)n1 (single isomer, unassigned)",
    "IC50 / nM": 570
  }
]
